- target_under_test: Axl (Homo sapiens)
- Construct: endogenous in cells; host or cells: HeLa cells
- Sequence (P30530 26-894): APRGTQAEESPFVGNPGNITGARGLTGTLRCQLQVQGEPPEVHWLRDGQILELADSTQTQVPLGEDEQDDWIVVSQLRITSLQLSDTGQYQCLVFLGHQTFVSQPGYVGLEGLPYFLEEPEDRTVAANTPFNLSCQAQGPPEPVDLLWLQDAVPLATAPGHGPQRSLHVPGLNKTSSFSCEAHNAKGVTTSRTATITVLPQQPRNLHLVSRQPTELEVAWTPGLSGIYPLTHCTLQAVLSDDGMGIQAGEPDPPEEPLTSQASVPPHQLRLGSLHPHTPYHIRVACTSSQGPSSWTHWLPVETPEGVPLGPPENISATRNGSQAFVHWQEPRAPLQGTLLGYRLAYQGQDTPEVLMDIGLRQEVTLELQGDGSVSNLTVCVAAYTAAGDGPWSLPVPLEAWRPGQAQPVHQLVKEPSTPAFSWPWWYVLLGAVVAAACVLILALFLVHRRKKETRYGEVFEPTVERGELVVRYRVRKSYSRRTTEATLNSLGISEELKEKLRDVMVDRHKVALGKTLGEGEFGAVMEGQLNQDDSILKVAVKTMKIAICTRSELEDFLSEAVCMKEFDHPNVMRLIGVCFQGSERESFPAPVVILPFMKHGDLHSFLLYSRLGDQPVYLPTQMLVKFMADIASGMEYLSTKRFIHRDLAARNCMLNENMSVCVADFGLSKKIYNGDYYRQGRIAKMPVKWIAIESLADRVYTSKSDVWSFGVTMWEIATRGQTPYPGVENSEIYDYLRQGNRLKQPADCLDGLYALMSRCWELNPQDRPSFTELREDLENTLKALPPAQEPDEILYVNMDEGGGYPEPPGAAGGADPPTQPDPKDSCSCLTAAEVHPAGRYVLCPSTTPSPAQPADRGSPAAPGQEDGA
- assay_comment: Phospho-Akt In-Cell Western Assay (inhibition of Axl activity)
- Assay type: cell-based
- setup_conditions: Hela cells, Axl antibody cross-linking stimulation, phospho-Akt chemiluminescence normalized to cell number; compounds of formula (Ia), Table 1
pIC50: −log10 of the molar value.
Reported pIC50 values for the following compounds.

> print(dat)
                                   compound   target.under.test  measured.parameter        result
1  Nc1nc(Nc2cnc3c(c2)CCC(=O)CCC3)nn1-c1cc2c(nn1)-c1ccccc1CCC2  Axl (Homo sapiens)               pIC50        > 6.00
2  Nc1nc(Nc2ccc3c(c2)CCCN(C2CCCC2)CC3)nn1-c1cc2c(nn1)-c1ccccc1CCC2  Axl (Homo sapiens)               pIC50  5.00 to 6.00

Prompt line: Which pIC50 is reported for this compound? CON=C1CCCc2ncc(Nc3nc(N)n(-c4cc5c(nn4)-c4ccccc4CCC5)n3)cc2CC1 (racemic)
Response line: 5.00 to 6.00

Prompt line: // pIC50 lookup, key: Nc1nc(Nc2ccc3c(c2)CC2CCC(C3)C2N2CCCC2)nn1-c1cc2c(nn1)-c1ccccc1CCC2 (stereo not shown)
Response line: > 6.00

---

- target_under_test: Axl (Homo sapiens)
- Construct: endogenous in cells; host or cells: HeLa cells
- Sequence (P30530 26-894): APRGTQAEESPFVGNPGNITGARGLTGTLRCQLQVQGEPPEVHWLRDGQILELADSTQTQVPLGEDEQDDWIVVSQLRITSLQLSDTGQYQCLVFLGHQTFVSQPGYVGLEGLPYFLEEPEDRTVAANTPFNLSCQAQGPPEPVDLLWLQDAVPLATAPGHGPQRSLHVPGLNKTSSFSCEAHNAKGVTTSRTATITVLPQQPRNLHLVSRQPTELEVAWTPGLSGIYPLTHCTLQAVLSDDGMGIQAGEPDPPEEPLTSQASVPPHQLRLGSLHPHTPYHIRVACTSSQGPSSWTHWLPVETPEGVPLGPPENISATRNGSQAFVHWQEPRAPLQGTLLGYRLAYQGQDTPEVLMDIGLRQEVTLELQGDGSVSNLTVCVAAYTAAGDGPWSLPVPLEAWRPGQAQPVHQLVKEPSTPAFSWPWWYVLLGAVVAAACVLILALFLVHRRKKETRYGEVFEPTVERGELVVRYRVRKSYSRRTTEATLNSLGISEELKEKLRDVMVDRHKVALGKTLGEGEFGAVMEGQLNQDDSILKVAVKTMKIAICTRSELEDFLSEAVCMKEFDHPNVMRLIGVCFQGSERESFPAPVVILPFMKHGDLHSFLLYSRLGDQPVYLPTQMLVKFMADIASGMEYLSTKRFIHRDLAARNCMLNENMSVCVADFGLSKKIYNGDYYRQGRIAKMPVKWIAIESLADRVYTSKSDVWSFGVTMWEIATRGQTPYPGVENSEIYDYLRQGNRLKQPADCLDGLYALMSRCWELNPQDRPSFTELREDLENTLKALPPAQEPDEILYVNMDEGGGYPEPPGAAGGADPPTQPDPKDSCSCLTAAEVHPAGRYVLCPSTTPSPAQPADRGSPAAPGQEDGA
- assay_comment: Phospho-Akt In-Cell Western Assay (inhibition of Axl activity)
- Type: cell-based
- setup_conditions: Hela cells, Axl antibody cross-linking stimulation, phospho-Akt chemiluminescence normalized to cell number; compounds of formula (Ia), Table 1
Reported IC50 values follow for various molecules

// below: answered molecules
> print(dat)
                                   molecule  measured.parameter            result
1  Nc1nc(Nc2ccc3c(c2)CCC(=O)NCC3)nn1-c1cc2c(nn1)-c1ccccc1CCC2 [Compound 1]                IC50         < 1000 nM
2  Nc1nc(Nc2ccc3c(c2)CNCCCC3)nn1-c1cc2c(nn1)-c1ccccc1CCC2 [Compound 13]                IC50  1000 to 10000 nM
3  Nc1nc(Nc2cnc3c(c2)CCC(=O)CCC3)nn1-c1cc(-c2ccncc2)c2c(n1)C1CCN2CC1 [Compound 10]                IC50         < 1000 nM
4  Nc1nc(Nc2cnc3c(c2)CCC(N2CCCC2)CCC3)nn1-c1cc2c(nn1)-c1ccccc1CCC2 (stereo not drawn) [Compound 7]                IC50         < 1000 nM
5  Nc1nc(Nc2ccc3c(c2)CCC2(CC3)OCCO2)nn1-c1ncnc2c1CCCCCC2 [Compound 14]                IC50  1000 to 10000 nM
6  Nc1nc(Nc2ccc3c(c2)C(=O)NCCCC3)nn1-c1cc2c(nn1)-c1ccccc1CCC2 [Compound 11]                IC50  1000 to 10000 nM
7  Nc1nc(Nc2cnc3c(c2)CCC(O)CCC3)nn1-c1cc2c(nn1)-c1ccccc1CCC2 (stereo not drawn) [Compound 9]                IC50  1000 to 10000 nM
8  Nc1nc(Nc2ccc3c(c2)CCN(C2CCCC2)CCC3)nn1-c1cc2c(nn1)-c1ccccc1CCC2 [Compound 3]                IC50         < 1000 nM

Prompt line: For the molecule Nc1nc(Nc2ccc3c(c2)CC(N2CCCC2)CCCC3)nn1-c1cc2c(nn1)-c1ccccc1CCC2 (stereo not drawn) [Compound 5] , what IC50 is on record?
Response line: 1000 to 10000 nM
